Consider the following compounds and their measured cytotoxicity at 70.5 h readings.
EXPERIMENT NOTES: Human HepG2 cell viability assay in 384 well format
Format: toxicity, cell-based
Set-up: dose 125 nL, time 70.5 hour; concentration not given beside the values
ASSAY CONDITIONS: HepG2 cells, read-out: Inhibition
Write the value in % as a bare number.

Check out these entries, answers already filled in.
>  <COMPOUND>
COc1cc2c(cc1-c1nc3c(cnn3C)[nH]1)OCO2

>  <MEASUREMENT UNITS>
%

>  <cytotoxicity at 70.5 h>
12.3

$$$$
>  <COMPOUND>
CCCOc1c(CNC2CCSC2)cccc1OC (stereo not drawn)

>  <MEASUREMENT UNITS>
%

>  <cytotoxicity at 70.5 h>
-11.2

$$$$
>  <COMPOUND>
NC(=O)c1cc(C2CCCN(C(=O)CCc3cccs3)C2)n[nH]1 (stereo not drawn)

>  <MEASUREMENT UNITS>
%

>  <cytotoxicity at 70.5 h>
10.7

$$$$
>  <COMPOUND>
CC(C)N(C)C(=O)C1CCN(Cc2cnc3ccccn23)CC1

>  <MEASUREMENT UNITS>
%

>  <cytotoxicity at 70.5 h>
-5.16

$$$$

Which measured cytotoxicity at 70.5 h value corresponds to CC(=O)N1CCC(N2CCOC[C@H]2c2nc(-c3cccnc3)c[nH]2)CC1 ?
17.9

Which measured cytotoxicity at 70.5 h value corresponds to N#Cc1ccc(CN2C[C@@H](F)[C@@H](OCc3nc4cnccc4[nH]3)C2)cc1 ?
-1.95

Which measured cytotoxicity at 70.5 h value corresponds to O=C(CC1CC1)NCc1cn2c(n1)CN(C(=O)C1CCOCC1)CC2 ?
-4.63

Which measured cytotoxicity at 70.5 h value corresponds to Cn1ccnc1CN1CCCN(C(=O)c2cccc(CC#N)c2)CC1 ?
11.5

Which measured cytotoxicity at 70.5 h value corresponds to Cc1cc(C)nc(Nc2nccnc2C2CCCN(C(CO)CO)C2)n1 (stereo not drawn) ?
-6.39

Which measured cytotoxicity at 70.5 h value corresponds to CC(C)CN1CCC2(C=C(C(=O)N3CCCC3)c3ccccc32)CC1 ?
-15.8

Which measured cytotoxicity at 70.5 h value corresponds to CCOC(=O)CNc1nc(C(C)(C)C)nc2c1cnn2C ?
1.33

Which measured cytotoxicity at 70.5 h value corresponds to CCC(NC(=O)NC1CCN(S(C)(=O)=O)CC1)c1cccs1 (stereo not drawn) ?
-11.5

Which measured cytotoxicity at 70.5 h value corresponds to O=C1CCCN1Cc1nnn2c1CN(c1cccnc1)CCC2 ?
-8.56

Which measured cytotoxicity at 70.5 h value corresponds to CC(c1ccccn1)N(C)Cc1ccc(CCC(C)(C)O)cc1 (stereo not drawn) ?
-1.13

Which measured cytotoxicity at 70.5 h value corresponds to Cc1ccc(CN2C[C@@H]3[C@@H](C(=O)NCC(C)C)CCS(=O)(=O)[C@@H]3C2)cc1 ?
-1.42

Which measured cytotoxicity at 70.5 h value corresponds to COC(=O)c1cc(NS(=O)(=O)c2cn(C)cn2)c(F)cc1F ?
-2.67

Which measured cytotoxicity at 70.5 h value corresponds to CC(NS(=O)(=O)N(C)C(C)C)C(=O)N(C)C (stereo not drawn) ?
-4.6

Which measured cytotoxicity at 70.5 h value corresponds to CNC(=O)CC1CC2(CCNCC2)c2cc(F)ccc21 (stereo not drawn) ?
-3.61

Which measured cytotoxicity at 70.5 h value corresponds to Cc1ccc(N(C)C2CCCN(C(=O)Nc3ccc(F)cc3F)C2)cc1 (stereo not drawn) ?
-2.7

Which measured cytotoxicity at 70.5 h value corresponds to Cn1ccnc1C(=O)N1CCC2(CCN2c2ncccn2)C1 (stereo not drawn) ?
0.472
